# STUDY SYSTEM: Beta Secretase enzyme (BACE) (Homo sapiens, UniProt P56817)
# Sequence (P56817 46-501): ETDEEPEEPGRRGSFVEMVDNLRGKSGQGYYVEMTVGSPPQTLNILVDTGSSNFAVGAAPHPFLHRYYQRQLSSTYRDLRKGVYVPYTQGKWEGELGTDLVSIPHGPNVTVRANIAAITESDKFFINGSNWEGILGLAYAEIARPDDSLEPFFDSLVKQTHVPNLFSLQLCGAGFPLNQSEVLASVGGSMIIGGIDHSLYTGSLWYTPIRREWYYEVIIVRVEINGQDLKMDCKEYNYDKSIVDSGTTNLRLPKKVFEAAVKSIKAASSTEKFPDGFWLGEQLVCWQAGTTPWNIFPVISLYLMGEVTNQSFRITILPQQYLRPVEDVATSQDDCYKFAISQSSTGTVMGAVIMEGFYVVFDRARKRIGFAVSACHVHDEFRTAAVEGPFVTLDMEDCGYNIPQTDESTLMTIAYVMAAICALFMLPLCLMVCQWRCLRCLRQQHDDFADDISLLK
# PROCEDURE SUMMARY: In vitro enzymatic BACE FRET (fluorescence resonance energy transfer) assay
# Assay type: biochemical
# CONDITION NOTES: BACE enzyme assay; read-out: BACE1 FRET assay (IC50)
VALUE TYPE: pIC50
Remember, pIC50 is on a log scale: it is -log10 of the molar concentration.

Worked examples, 2 compounds total:
chem_smiles=CC(C)(C)Cc1cnc2c(c1)[C@@H](NC[C@@H](O)[C@H](Cc1cccc(F)c1)NC(=O)CCl)CC1(CCC1)O2 value_type=pIC50 observed=8.29
chem_smiles=COCC(=O)N[C@@H](Cc1ccc(F)c(OC(F)(F)F)c1)[C@H](O)CN[C@H]1CC2(CCC2)Oc2ncc(CC(C)(C)C)cc21 value_type=pIC50 observed=8.60

Please turn your attention to the following entry.
// query Reported pIC50, compound `CO[C@H](C)C(=O)N[C@@H](Cc1ccc2c(c1)OCO2)[C@H](O)CN[C@H]1CC2(CCC2)Oc2c1cc(CC(C)(C)C)nc2N(C)C` : ____
// result 7.19

---

# STUDY SYSTEM: CYP2D6 (Homo sapiens)
# Sequence (P10635 whole entry): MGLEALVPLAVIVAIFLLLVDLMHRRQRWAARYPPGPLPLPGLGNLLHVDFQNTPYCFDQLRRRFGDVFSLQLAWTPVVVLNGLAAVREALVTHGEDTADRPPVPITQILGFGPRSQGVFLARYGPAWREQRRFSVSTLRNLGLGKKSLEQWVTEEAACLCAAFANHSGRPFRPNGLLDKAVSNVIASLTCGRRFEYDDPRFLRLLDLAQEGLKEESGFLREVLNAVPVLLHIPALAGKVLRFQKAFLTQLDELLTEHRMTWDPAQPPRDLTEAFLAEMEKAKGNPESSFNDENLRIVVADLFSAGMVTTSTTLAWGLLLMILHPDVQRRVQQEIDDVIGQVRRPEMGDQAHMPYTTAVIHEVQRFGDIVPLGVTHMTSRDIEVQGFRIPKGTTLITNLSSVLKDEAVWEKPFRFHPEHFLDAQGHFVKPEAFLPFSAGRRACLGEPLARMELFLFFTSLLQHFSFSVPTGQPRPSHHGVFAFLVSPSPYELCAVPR
# PROCEDURE SUMMARY: CYP2D6 inhibition assay (bufuralol, pooled human liver microsomes)
# CONDITION NOTES: 2D6 IC50 (uM), CYP enzyme inhibition
Each entry below lists one item and its recorded IC50 value.
Output spec: scalar in µM, unitless text.

Worked examples, 5 molecules total:
chem_smiles=COCC(=O)N[C@@H](Cc1cc(F)cc(F)c1)[C@H](O)CN[C@H]1CC2(CCC2)Oc2c(-c3cccnc3)cc(CC(C)(C)C)cc21 value_type=IC50 scale_unit=µM observed=3.9
chem_smiles=COCC(=O)N[C@@H](Cc1cccc(-c2nccs2)c1)[C@H](O)CN[C@@H]1C[C@@]2(CCOC2)Oc2ncc(CC(C)(C)C)cc21 value_type=IC50 scale_unit=µM observed=2.1
chem_smiles=CC[C@@H](OC)C(=O)N[C@@H](Cc1ccc(F)cc1)[C@H](O)CN[C@H]1CC2(CCC2)Oc2ncc(CC(C)(C)C)cc21 value_type=IC50 scale_unit=µM observed=13
chem_smiles=C#Cc1cccc(C[C@H](NC(=O)COC)[C@H](O)CN[C@H]2CC3(CCC3)Oc3ncc(CC(C)C)cc32)c1 value_type=IC50 scale_unit=µM observed=1.4
chem_smiles=COCCC(=O)N[C@@H](Cc1cccc(-c2nccs2)c1)[C@H](O)CN[C@H]1CC2(CCC2)Oc2ncc(CC(C)(C)C)cc21 value_type=IC50 scale_unit=µM observed=0.6

// query Reported IC50, molecule `CO[C@H](C)C(=O)N[C@@H](Cc1ccc2c(c1)OCO2)[C@H](O)CN[C@@H]1c2cc(CC(C)(C)C)cnc2OC2(CCC2)[C@H]1F` : ____
// result 6.5

---

# STUDY SYSTEM: Beta Secretase enzyme (BACE) (Homo sapiens, UniProt P56817)
# PROCEDURE SUMMARY: In vitro enzymatic BACE FRET (fluorescence resonance energy transfer) assay;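 note: fluorescence read after 1 h with 50 nM quenched peptide substrate spanning the BACE cleavage site, in pH 4.2 acetate buffer containing 10% DMSO and nonionic detergent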
# Type: biochemical
# CONDITION NOTES: BACE enzyme assay; read-out: BACE1 FRET assay (IC50)
VALUE TYPE: pIC50
Remember, pIC50 is on a log scale: it is -log10 of the molar concentration.

compound="CC(O)C(=O)N[C@@H](Cc1ccc(F)cc1)[C@H](O)CN[C@H]1CC2(CCC2)Oc2ncc(CC(C)(C)C)cc21 (stereo partly shown) [compound 156]" value_type=pIC50 observed=7.56

// query Reported pIC50, compound CC(=O)N[C@@H](Cc1ccc2c(c1)OCO2)[C@H](O)CN[C@H]1CC2(CCC2)Oc2ncc(CC(C)(C)CF)cc21 [compound 178] : ____
// result 8.08

// query Reported pIC50, compound COC(C)C(=O)NC(Cc1ccc2c(c1)OCO2)C(O)CNC1CC2(CC(C)C2)Oc2ncc(CC(C)C)cc21 (stereo not shown) [compound 134] : ____
// result 7.57
